Please respond with reported IC50 for every item in the list.
Biological target: NRAS Q61R (Homo sapiens, UniProt P01111+P62937, Q61R)
Sequence (P01111 whole entry Q61R): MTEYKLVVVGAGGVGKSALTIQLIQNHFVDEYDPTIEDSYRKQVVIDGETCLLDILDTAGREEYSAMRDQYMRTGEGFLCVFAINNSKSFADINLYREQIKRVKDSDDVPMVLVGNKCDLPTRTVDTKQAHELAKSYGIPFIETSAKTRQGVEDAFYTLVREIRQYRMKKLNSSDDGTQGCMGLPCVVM
Sequence (P62937 whole entry): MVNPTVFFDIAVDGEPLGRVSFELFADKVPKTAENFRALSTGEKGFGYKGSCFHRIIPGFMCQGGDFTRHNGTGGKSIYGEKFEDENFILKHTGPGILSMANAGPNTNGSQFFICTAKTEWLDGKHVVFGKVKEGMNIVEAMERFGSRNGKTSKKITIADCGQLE
Experiment: Ras-Raf disruption / FRET / MOA assay (BRAF RBD)
Type: biochemical
Conditions: NRAS Q61R; read-out: NRAS Q61R FRET data IC50

Each molecule below has a reported value. Please supply its IC50.
1. CCn1c(-c2cccnc2[C@H](C)OC)c2c3cc(ccc31)-c1cc(O)cc(c1)C[C@H](NC(=O)[C@H](C(C)C)N(C)C(=O)[C@@H]1CCCN(C(=O)[C@@H]3CN3)C1)C(=O)N1CCC[C@H](N1)C(=O)OCC(C)(C)C2 [Example 238]
2. CCn1c(-c2cccnc2[C@H](C)OC)c2c3cc(ccc31)-c1cc(O)cc(c1)C[C@H](NC(=O)[C@H](C(C)C)N1CC[C@]3(CCN(C(=O)[C@@H]4N[C@@H]4C4CC4)C3)C1=O)C(=O)N1CCC[C@H](N1)C(=O)OCC(C)(C)C2 [Example 305]
3. CCn1c(-c2cccnc2[C@H](C)OC)c2c3cc(ccc31)-c1cc(O)cc(c1)C[C@H](NC(=O)[C@H](C(C)C)N(C)C(=O)[C@H]1C[C@H]3CC[C@@H](C1)N3C(=O)[C@@H]1CN1)C(=O)N1CCC[C@H](N1)C(=O)OCC(C)(C)C2 (atropisomer, axis not shown) [Example 246]
4. CCn1c(-c2cccnc2[C@H](C)OC)c2c3cc(ccc31)-c1cc(O)cc(c1)C[C@H](NC(=O)[C@H](C(C)C)N(C)C(=O)[C@H]1CCN(C(=O)[C@H]3CN3)[C@H]1C)C(=O)N1CCC[C@H](N1)C(=O)OCC(C)(C)C2 (atropisomer, axis not shown) [Example 206]

OUTPUT:
100 to 1000 nM
100 to 1000 nM
100 to 1000 nM
1000 to 10000 nM

---

Biological target: KRAS WT (Homo sapiens, UniProt P01116+P62937)
Sequence (P01116 1-169 isoform P01116-2 limits assumed): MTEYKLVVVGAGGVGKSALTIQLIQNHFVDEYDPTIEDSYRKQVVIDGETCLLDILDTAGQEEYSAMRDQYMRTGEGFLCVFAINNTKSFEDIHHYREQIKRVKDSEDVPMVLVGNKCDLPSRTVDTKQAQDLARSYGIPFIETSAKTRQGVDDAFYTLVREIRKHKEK
Sequence (P62937 whole entry): as the sequence (P62937 whole entry) above
Assay: Disruption of BRAF RBD interaction with Ras (FRET / MOA assay, with Cyclophilin A)
Assay type: biochemical
Conditions: KRAS WT; read-out: KRAS WT FRET data IC50
measurement_type: IC50

Previously resolved entries follow.
{"columns": ["molecule", "experimental_value"],
 "data": [
  ["CCn1c(-c2cccnc2[C@H](C)OC)c2c3cc(ccc31)-c1csc(n1)C[C@H](NC(=O)[C@H](C(C)C)N(C)C(=O)N1CC([C@@H](C)N(C)C)C1)C(=O)N1CCC[C@H](N1)C(=O)OCC(C)(C)C2 (atropisomer, axis not shown)", "100 to 1000 nM"],
  ["CCn1c(-c2cccnc2[C@H](C)OC)c2c3cc(ccc31)-c1csc(n1)C[C@H](NC(=O)[C@H](C(C)C)N(C)C(=O)N1CCN3CCOC[C@H]3C1)C(=O)N1CCC[C@H](N1)C(=O)OCC(C)(C)C2", "100 to 1000 nM"],
  ["CCn1c(-c2cccnc2[C@H](C)OC)c2c3cc(ccc31)-c1csc(n1)C[C@H](NC(=O)[C@H](C(C)C)N(C)C(=O)[C@@H]1OCC[C@@H]1C)C(=O)N1CCC[C@H](N1)C(=O)OCC(C)(C)C2", "1000 to 10000 nM"],
  ["CCn1c(-c2cc(N3CCN(C)CC3)cnc2[C@H](C)OC)c2c3cc(ccc31)-c1csc(n1)C[C@H](NC(C)=O)C(=O)N1CCC[C@H](N1)C(=O)OCC(C)(C)C2 [Example A321]", "100 to 1000 nM"],
  ["CCn1c(-c2cc(C3CCN(C)CC3)cnc2[C@H](C)OC)c2c3cc(ccc31)-c1cc(O)cc(c1)C[C@H](NC(=O)[C@H](C(C)C)N(C)C(=O)[C@@H]1OCC[C@@H]1c1ccccc1)C(=O)N1CCC[C@H](N1)C(=O)OCC(C)(C)C2 (atropisomer, axis not shown)", "10 to 100 nM"]
]}

Each molecule below has a reported value. Please supply its IC50.
1. CCn1c(-c2cccnc2[C@H](C)OC)c2c3cc(ccc31)-c1cc(O)cc(c1)C[C@H](NC(=O)[C@H](C(C)C)N(C)C(=O)[C@@H]1CCNC1)C(=O)N1CCC[C@H](N1)C(=O)OCC(C)(C)C2
2. C=CC(=O)N1CC2(CCN2C(=O)N(C)[C@H](C(=O)N[C@H]2Cc3nc(n(C)n3)-c3ccc4c(c3)c(c(-c3cccnc3[C@H](C)OC)n4CC)CC(C)(C)COC(=O)C3CCCN(N3)C2=O)C(C)C)C1 (some centres unmarked)
3. CCn1c(-c2cc(N3CCN(C)CC3)cnc2[C@H](C)OC)c2c3cc(ccc31)-c1csc(n1)C[C@H](NC(=O)[C@H](C(C)C)N(C)C(=O)[C@H]1CCNC1=O)C(=O)N1CCC[C@H](N1)C(=O)OCC(C)(C)C2 (single isomer, unassigned)

OUTPUT:
["10 to 100 nM", "100 to 1000 nM", "100 to 1000 nM"]

---

Please respond with reported pIC50 for every item in the list.
Target: NRAS Q61R (Homo sapiens, UniProt P01111+P62937, Q61R)
Assay: Disruption of BRAF RBD interaction with Ras (FRET / MOA assay, with Cyclophilin A)
Assay type: biochemical
Details: NRAS Q61R; read-out: NRAS Q61R FRET data IC50
Excerpt: Disruption of B-Raf Ras-Binding Domain (BRAF^RBD) Interaction with K-Ras by Compounds of the Invention (Also Called a FRET Assay or an MOA Assay) Note—The following protocol describes a procedure for monitoring disruption of K-Ras G12C (GMP-PNP) binding to BRAF^RBD by a compound of the invention. This protocol may also be executed substituting other Ras proteins or nucleotides. […]
pIC50: −log10 of the molar value.

Previously resolved entries follow.
{"columns": ["compound", "experimental_value"],
 "data": [
  ["CCn1c(-c2cccnc2[C@H](C)OC)c2c3cc(ccc31)-c1csc(n1)C[C@H](NC(=O)[C@H](C(C)C)N(C)C(=O)N1CC[C@@H]1C(=O)NC)C(=O)N1CCC[C@H](N1)C(=O)OCC(C)(C)C2 [Example A281]", "5.00 to 6.00"],
  ["CCn1c(-c2cccnc2[C@H](C)OC)c2c3cc(ccc31)-c1csc(n1)C[C@H](NC(=O)C1CCC1)C(=O)N1CCC[C@H](N1)C(=O)OCC(C)(C)C2 [Example A369]", "6.00 to 7.00"],
  ["CCn1c(-c2cc(N3CCN(C)CC3)cnc2[C@H](C)OC)c2c3cc(ccc31)-c1csc(n1)C[C@H](NC(=O)[C@H](C(C)C)N(C)C(=O)N1CCOCC1)C(=O)N1CCC[C@H](N1)C(=O)OCC(C)(C)C2 (atropisomer, axis not shown) [Example A555]", "7.00 to 8.00"],
  ["CCn1c(-c2cccnc2[C@H](C)OC)c2c3cc(ccc31)-c1csc(n1)C[C@H](NC(=O)[C@H](C(C)C)N(C)C(=O)[C@H]1CCN(C(=O)CNC)C1)C(=O)N1CCC[C@H](N1)C(=O)OCC(C)(C)C2 [Example A99]", "5.00 to 6.00"]
]}

Each compound below has a reported value. Please supply its pIC50.
1. CCn1c(-c2cccnc2[C@H](C)OC)c2c3cc(ccc31)-c1csc(n1)C[C@H](NC(=O)[C@H](C(C)C)N(C)C(=O)N1CC[C@H]3CN(C)C[C@H]31)C(=O)N1CCC[C@H](N1)C(=O)OCC(C)(C)C2 (atropisomer, axis not shown) [Example A471]
2. CCn1c(-c2cccnc2[C@H](C)OC)c2c3cc(ccc31)-c1csc(n1)C[C@H](NC(=O)[C@H](C(C)C)N(C)C(=O)N1CCO[C@H](C)C1)C(=O)N1CCC[C@H](N1)C(=O)OCC(C)(C)C2 [Example A310]
3. CCn1c(-c2cccnc2[C@H](C)OC)c2c3cc(ccc31)-c1cccc(c1)C[C@H](NC(=O)[C@H](C(C)C)N1CC[C@]3(CCN(C(=O)C#C[C@@H]4COCCN4C4COC4)C3)C1=O)C(=O)N1CCC[C@H](N1)C(=O)OCC(C)(C)C2 [Example A565]
4. CCn1c(-c2cccnc2[C@H](C)OC)c2c3cc(ccc31)-c1cc(O)cc(c1)C[C@H](NC(=O)[C@H](C(C)C)N(C)C(=O)[C@H]1C[C@@H]1O)C(=O)N1CCC[C@H](N1)C(=O)OCC(C)(C)C2 (single isomer, unassigned) [Example A346]

OUTPUT:
1. 6.00 to 7.00
2. 7.00 to 8.00
3. < 5.00
4. 6.00 to 7.00

---

Please respond with reported pIC50 for every item in the list.
Target: KRAS G12S (Homo sapiens, UniProt P01116+P62937, G12S)
Sequence (P01116 1-169 isoform P01116-2 G12S limits assumed): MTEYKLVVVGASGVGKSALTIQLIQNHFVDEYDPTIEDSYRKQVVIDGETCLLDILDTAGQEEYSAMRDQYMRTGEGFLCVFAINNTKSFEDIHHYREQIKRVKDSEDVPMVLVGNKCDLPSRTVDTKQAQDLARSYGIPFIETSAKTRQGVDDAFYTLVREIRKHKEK
Sequence (P62937 whole entry): as the sequence (P62937 whole entry) above
Assay: Ras-Raf disruption / FRET / MOA assay (BRAF RBD)
Assay type: biochemical
Conditions: Ras-Raf disruption, with Cyclophilin A; read-out: KRAS G12S FRET data IC50
pIC50: −log10 of the molar value.

{"columns": ["molecule", "target_of_assay", "measurement_type", "experimental_value"],
 "data": [
  ["CCn1c(-c2cnccc2COC)c2c3cc(ccc31)-c1cccc(c1)C[C@H](NC(=O)[C@H](C(C)C)N(C)C(=O)CCN=C=NCCOC)C(=O)N1CCC[C@H](N1)C(=O)OCC(C)(C)C2", "KRAS G12S (Homo sapiens, UniProt P01116+P62937, G12S)", "pIC50", "5.00 to 6.00"]
]}

INPUT: Short answer please: pIC50, KRAS G12S (Homo sapiens, UniProt P01116+P62937, G12S), entry CCn1c(-c2cccnc2[C@H](C)OC)c2c3cc(ccc31)-c1csc(n1)C[C@H](NC(=O)[C@H](C(C)C)N(C)C(=O)N(C)[C@H]1CCN(C(=O)[C@@H]3CN3)C1)C(=O)N1CCC[C@H](N1)C(=O)OCC(C)(C)C2 (atropisomer, axis not shown)
OUTPUT: 6.00 to 7.00
